# target: human AR (Homo sapiens)
# experiment_description: Co-transfection assay, AR agonist activity (CV-1 cells, MTV-LUC reporter)
# Type: cell-based
# assay_conditions: CV-1 cells; percent maximal response relative to reference agonist DHT
observable: AR Agonist CV-1 Cells Efficacy (%)

compound: Cn1c(=O)cc(C(F)(F)F)c2cc(N(CC(F)(F)F)CC(F)(F)F)ccc21
target: human AR (Homo sapiens)
observable: AR Agonist CV-1 Cells Efficacy (%)
observed: 43

compound: CCC(C)c1cc2c(C(F)(F)F)cc(=O)[nH]c2cc1N (stereo not drawn)
target: human AR (Homo sapiens)
observable: AR Agonist CV-1 Cells Efficacy (%)
observed: 39

compound: O=c1cc(C(F)(F)F)c2cc(N(CC(F)(F)C(F)(F)F)CC(F)(F)C(F)(F)F)ccc2[nH]1
target: human AR (Homo sapiens)
observable: AR Agonist CV-1 Cells Efficacy (%)
observed: 108

----------
# target: human AR (Homo sapiens, UniProt P10275)
# Sequence (P10275 whole entry): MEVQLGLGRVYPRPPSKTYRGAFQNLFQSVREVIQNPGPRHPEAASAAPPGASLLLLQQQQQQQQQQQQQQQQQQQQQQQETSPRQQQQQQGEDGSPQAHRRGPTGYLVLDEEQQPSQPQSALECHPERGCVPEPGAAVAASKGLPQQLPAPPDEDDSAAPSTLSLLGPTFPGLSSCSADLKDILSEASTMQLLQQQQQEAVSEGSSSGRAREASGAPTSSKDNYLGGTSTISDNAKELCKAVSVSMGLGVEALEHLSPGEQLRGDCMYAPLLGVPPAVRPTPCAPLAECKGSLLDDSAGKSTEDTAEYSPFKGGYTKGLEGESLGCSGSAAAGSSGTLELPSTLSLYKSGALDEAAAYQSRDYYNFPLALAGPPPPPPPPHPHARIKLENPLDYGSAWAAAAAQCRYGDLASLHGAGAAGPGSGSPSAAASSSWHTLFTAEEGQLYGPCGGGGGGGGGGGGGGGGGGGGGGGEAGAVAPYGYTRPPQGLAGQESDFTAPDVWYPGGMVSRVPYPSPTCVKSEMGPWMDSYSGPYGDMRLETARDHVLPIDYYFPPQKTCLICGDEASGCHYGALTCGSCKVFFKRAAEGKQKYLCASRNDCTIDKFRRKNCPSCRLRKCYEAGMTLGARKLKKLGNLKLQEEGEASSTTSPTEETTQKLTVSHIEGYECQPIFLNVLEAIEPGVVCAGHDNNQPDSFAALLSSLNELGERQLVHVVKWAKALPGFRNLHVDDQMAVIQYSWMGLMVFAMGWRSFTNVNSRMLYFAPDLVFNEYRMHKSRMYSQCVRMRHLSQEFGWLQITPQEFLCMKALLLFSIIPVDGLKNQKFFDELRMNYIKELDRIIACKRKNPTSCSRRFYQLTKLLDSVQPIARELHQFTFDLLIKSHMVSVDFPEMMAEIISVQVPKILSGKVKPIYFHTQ
# experiment_description: Co-transfection assay, AR agonist activity (CV-1 cells, MTV-LUC reporter)
# assay_conditions: CV-1 cells; agonist potency EC50
pEC50: −log10 of the molar value.
# pEC50 per entry
observable: pEC50

compound: CCN(CC(C)C)c1ccc2[nH]c(=O)cc(C(F)(F)F)c2c1 [Compound 241]
value_prefix: =
observed: 8.54
//
compound: CCCN(c1ccc2[nH]c(=O)cc(C(F)(F)F)c2c1)C(C)CC (racemic) [Compound 255]
value_prefix: =
observed: 7.60
//
compound: Cc1cccc(-c2ccc3[nH]c(=O)cc(C(F)(F)F)c3c2)c1 [Compound 738]
value_prefix: <
observed: 5.00
//
compound: O=c1cc(C(F)(F)F)c2cc(C3CCCCC3)ccc2[nH]1 [Compound 616]
value_prefix: <
observed: 5.00
//
compound: O=c1cc(C(F)(F)F)c2cc(N(CC(F)(F)Cl)CC(F)(F)Cl)ccc2[nH]1 [Compound 225]
value_prefix: =
observed: 9.40
//
compound: CCCN(CC)c1ccc2[nH]c(=O)cc(C(F)(F)F)c2c1 [Compound 238]
value_prefix: =
observed: 8.28
//
compound: O=c1cc(C(F)(F)F)c2cc(N3CCCCC3CCOCc3ccc(C(F)(F)F)cc3)ccc2[nH]1 (racemic) [Compound 449]
value_prefix: =
observed: 7.80
//
compound: CC(C)Nc1ccc2c(C(F)(F)F)c(F)c(=O)[nH]c2c1 [Compound 535]
value_prefix: <
observed: 5.00

----------
# target: UniProtKB P10275
# experiment_description: Co-transfection assay, AR agonist activity (CV-1 cells, MTV-LUC reporter)
# Assay type: cell-based
# assay_conditions: CV-1 cells; percent maximal response relative to reference agonist DHT
Label key: rule met means AR Agonist CV-1 Cells Efficacy (%) under 80%; rule not met means AR Agonist CV-1 Cells Efficacy (%) of 80% or more.

compound: O=c1cc(C(F)(F)F)c2cc(N(CC(F)(F)F)CC(F)(F)F)ccc2o1 [Compound 474]
target: UniProtKB P10275
label: rule met
//
compound: CCC(CC)c1ccc2[nH]c(=O)cc(C(F)(F)F)c2c1 [Compound 647]
target: UniProtKB P10275
label: rule met
//
compound: C=CCN(CC1CC1)c1ccc2[nH]c(=O)cc(C(F)(F)F)c2c1 [Compound 285]
target: UniProtKB P10275
label: rule not met
//
compound: C=CC1CCCCN1c1ccc2[nH]c(=O)cc(C(F)(F)F)c2c1 (racemic) [Compound 444]
target: UniProtKB P10275
label: rule not met
//
compound: O=c1cc(C(F)(F)F)c2cc(N3CCCCC3CO)ccc2[nH]1 (racemic) [Compound 331]
target: UniProtKB P10275
label: rule met
//
compound: CC1COC(C(F)(F)F)N1c1ccc2[nH]c(=O)cc(C(F)(F)F)c2c1 (racemic) [Compound 352]
target: UniProtKB P10275
label: rule not met
//
compound: O=c1cc(C(F)(F)F)c2cc(N3CCCC[C@H]3CCl)ccc2[nH]1 [Compound 432]
target: UniProtKB P10275
label: rule not met
//
compound: CC(C)CN(CC(F)(F)F)c1ccc2[nH]c(=O)cc(C(F)(F)F)c2c1 [Compound 259]
target: UniProtKB P10275
label: rule not met

----------
# target: human AR (Homo sapiens, UniProt P10275)
# experiment_description: Co-transfection assay, AR antagonist activity (CV-1 cells, in presence of DHT)
# Type: cell-based
# assay_conditions: read-out: AR Antagonist CV-1 Cells Potency

molecule: O=c1cc(C(F)(F)F)c2cc(N3CCCC[C@H]3CCl)ccc2[nH]1
readout_units: nM
value_prefix: >
IC50: 10000
//
molecule: O=c1cc(C(F)(F)F)c2cc(N3CCCCC3CO)ccc2[nH]1 (racemic)
readout_units: nM
value_prefix: =
IC50: 5.7
//
molecule: CCCC1CCC(CCC)N1c1ccc2[nH]c(=O)cc(C(F)(F)F)c2c1 (racemic)
readout_units: nM
value_prefix: =
IC50: 14
//
molecule: Cc1cccc(-c2ccc3[nH]c(=O)cc(C(F)(F)F)c3c2)c1
readout_units: nM
value_prefix: =
IC50: 27
//
molecule: O=c1cc(C(F)(F)F)c2cc(C3=CCCCCC3)ccc2[nH]1
readout_units: nM
value_prefix: =
IC50: 7.5
//
molecule: CC(C)CN(c1ccc2[nH]c(=O)cc(C(F)(F)F)c2c1)C(C)C(F)(F)F (racemic)
readout_units: nM
value_prefix: =
IC50: 50
//
molecule: O=c1cc(C(F)(F)F)c2cc(N3CCCCC3CCOCc3ccc(C(F)(F)F)cc3)ccc2[nH]1 (racemic)
readout_units: nM
value_prefix: >
IC50: 10000
//
molecule: O=c1cc(C(F)(F)F)c2cc(N(CC(F)(F)C(F)(F)F)CC(F)(F)C(F)(F)F)ccc2[nH]1
readout_units: nM
value_prefix: >
IC50: 10000
//
molecule: CCCN(CC(F)(F)F)c1ccc2[nH]c(=O)cc(C)c2c1
readout_units: nM
value_prefix: >
IC50: 10000
//
molecule: CS(=O)(=O)N(CC(F)(F)F)c1ccc2[nH]c(=O)cc(C(F)(F)F)c2c1
readout_units: nM
value_prefix: =
IC50: 3.6
//
molecule: O=c1cc(C(F)(F)F)c2cc(N(CC(Cl)Cl)CC(Cl)Cl)ccc2[nH]1
readout_units: nM
value_prefix: >
IC50: 10000
//
molecule: CC1(C)CC(=O)Nc2ccc(N(CC(F)(F)F)CC(F)(F)F)cc21
readout_units: nM
value_prefix: >
IC50: 10000
//
molecule: CC1COC(C(F)(F)F)N1c1ccc2[nH]c(=O)cc(C(F)(F)F)c2c1 (racemic)
readout_units: nM
value_prefix: >
IC50: 10000
//
molecule: C=CCN(CC=C)c1ccc2[nH]c(=O)cc(C(F)(F)F)c2c1
readout_units: nM
value_prefix: >
IC50: 10000
//
molecule: O=c1cc(C(F)(F)F)c2cc(-c3cccc(F)c3F)ccc2[nH]1
readout_units: nM
value_prefix: =
IC50: 79
//
molecule: C[C@@H]1C=C[C@H](C)N1c1ccc2[nH]c(=O)cc(C(F)(F)F)c2c1
readout_units: nM
value_prefix: >
IC50: 10000
//
molecule: O=c1cc(C(F)(F)F)c2cc(-c3ccc(Cl)cc3Cl)ccc2[nH]1
readout_units: nM
value_prefix: =
IC50: 51
//
molecule: O=c1cc(C(F)(F)F)c2cc(N3CCc4ccccc43)ccc2[nH]1
readout_units: nM
value_prefix: =
IC50: 59
//
molecule: C=CCN(CC1CC1)c1ccc2[nH]c(=O)cc(C(F)(F)F)c2c1
readout_units: nM
value_prefix: >
IC50: 10000
//
molecule: CC(C)CN(CC(C)C)c1ccc2[nH]c(=O)cc(C(F)(F)F)c2c1
readout_units: nM
value_prefix: >
IC50: 10000
//
molecule: CCCCC1(O)C=C(c2ccc3c(c2)C(C)(C)OC(=O)N3)CCC1 (racemic)
readout_units: nM
value_prefix: =
IC50: 64
//
molecule: CCC(CC)c1ccc2[nH]c(=O)cc(C(F)(F)F)c2c1
readout_units: nM
value_prefix: =
IC50: 31
//
molecule: CC(C)c1ccc2[nH]c(=O)cc(C(F)(F)F)c2c1
readout_units: nM
value_prefix: =
IC50: 48
//
molecule: COC[C@H]1CCCN1c1ccc2[nH]c(=O)cc(C(F)(F)F)c2c1
readout_units: nM
value_prefix: >
IC50: 10000
//
molecule: COc1cccc(-c2ccc3[nH]c(=O)cc(C)c3c2)c1
readout_units: nM
value_prefix: =
IC50: 87
//
molecule: O=c1cc(C(F)(F)F)c2cc(C3CCCCC3)ccc2[nH]1
readout_units: nM
value_prefix: =
IC50: 17
//
molecule: O=c1cc(C(F)(F)F)c2cc(C(O)(c3ccccc3)c3ccccc3)ccc2[nH]1
readout_units: nM
value_prefix: =
IC50: 44
//
molecule: CCCOc1c(NCC(F)(F)F)ccc2[nH]c(=O)cc(C(F)(F)F)c12
readout_units: nM
value_prefix: =
IC50: 27
//
molecule: CCCN(CC1CC1)c1ccc2[nH]c(=O)cc(C(F)(F)F)c2c1
readout_units: nM
value_prefix: >
IC50: 10000
//
molecule: O=c1cc(C(F)(F)F)c2cc(N(CC(F)(F)Cl)CC(F)(F)Cl)ccc2[nH]1
readout_units: nM
value_prefix: >
IC50: 10000
//
molecule: O=c1cc(C(F)(F)F)c2cc(C3=CCCCC3)ccc2[nH]1
readout_units: nM
value_prefix: =
IC50: 13
//
molecule: Cn1c(=O)cc(C(F)(F)F)c2cc(N(CC(F)(F)F)CC(F)(F)F)ccc21
readout_units: nM
value_prefix: =
IC50: 3.2
//
molecule: O=c1cc(C(F)(F)F)c2cc(N3CCCCCC3)ccc2[nH]1
readout_units: nM
value_prefix: >
IC50: 10000
//
molecule: CCN(CC(C)C)c1ccc2[nH]c(=O)cc(C(F)(F)F)c2c1
readout_units: nM
value_prefix: >
IC50: 10000
//
molecule: CC1(C)OC(=S)Nc2ccc(C3=CCCCC3)cc21
readout_units: nM
value_prefix: =
IC50: 40
